Tested on: PBMC (HIV-1-specific CD8+ T cells) of subject AC-06
Assay: IFN-γ Elispot assay of HIV-1-specific CD8+ T cell responses in subject AC-06
Format: cell-based, human
Conditions: subject AC-06, 20 months after infection
quantity-measured: magnitude of HIV-1-specific CD8+ T cell responses at the single epitope level
# include the unit after the value

>>> result("AVDLSHFLK [A3-ALK9]")
"450 SFC/Million PBMC"
>>> result("RLRDLLLIVTR [A3-RR11]")
"0 SFC/Million PBMC"
>>> result("RIRTWKSLVK [A3-RK10]")
"180 SFC/Million PBMC"
>>> result("RPMTYKAAL [B7-RL9]")
"120 SFC/Million PBMC"
>>> result("KLVDFRELNK [A3-KK10]")
"0 SFC/Million PBMC"
>>> result("AVFIHNFKRK [A3-AK10]")
"0 SFC/Million PBMC"

# magnitude of HIV-1-specific CD8+ T cell responses at the single epitope level lookup, item SPAIFQSSM [B7-SM9]
90 SFC/Million PBMC

What measured magnitude of HIV-1-specific CD8+ T cell responses at the single epitope level goes with RRQDILDLWIY [Cw7-RY11] ?
0 SFC/Million PBMC

Tell me the measured magnitude of HIV-1-specific CD8+ T cell responses at the single epitope level of HPRVSSEVHI [B7-HI10] , please.
500 SFC/Million PBMC

Given the sequence HMYISKKAK [A3-HK9] , what is its reported magnitude of HIV-1-specific CD8+ T cell responses at the single epitope level?
110 SFC/Million PBMC

Give its magnitude of HIV-1-specific CD8+ T cell responses at the single epitope level value. Item: AIFQSSMTK [A3-ATK9]
0 SFC/Million PBMC

magnitude of HIV-1-specific CD8+ T cell responses at the single epitope level for RPNNNTRKSI [B7-RI10] ?
0 SFC/Million PBMC
